Test method notes: Incorporation of photocatalysts into TPU films versus process time, absorption spectroscopy against blank film (Beispiele 7a-9b)
Assay type: physicochemical
Particulars: Beispiel 7a neutral Phenalen-1-one; TPU film, Rezeptur 1; process time 5 min
Reported values of Abs. 5 min for individual entries
Experimental readout: Abs. 5 min

1) NCCCOC1=CC(=O)c2cccc3cccc1c23    0,016
2) NCCCOc1ccc2cccc3c2c1C(=O)C=C3    0,062
3) CC(Oc1ccc(OCC2=Cc3cccc4cccc(c34)C2=O)cc1)C(=O)O (stereo not drawn) [F-20a]    0,020
4) COC(=O)C(C)Oc1ccc(OCC2=Cc3cccc4cccc(c34)C2=O)cc1 (stereo not drawn) [F-19a]    >1
5) NCCOc1ccc2c3c(cccc13)C=CC2=O    0,123
6) O=C1C(COc2ccc(O)cc2)=Cc2cccc3cccc1c23    0,411
